result type: melting point (°C)
Reply numerically in °C, unit not repeated.

>>> value_measured("COc1cc(NC(C(=O)c2c[nH]c3cc(Cl)ccc23)c2ccc(Cl)cc2OCCO)cc(S(C)(=O)=O)c1 (racemic)")
121
>>> value_measured("COc1cc(NC(C(=O)c2c[nH]c3c(C)c(Cl)ccc23)c2ccc(Cl)cc2OCCO)cc(S(C)(=O)=O)c1 (racemic)")
206

// next item, melting point requested
Can you share its melting point? I mean this molecule: COc1cc(NC(C(=O)c2c[nH]c3cc(OC)ccc23)c2ccc(Cl)cc2OCCO)cc(S(C)(=O)=O)c1 (racemic) 149

----------
test system: Vero cells; assay: in vitro; format: cell-based; settings: African green monkey
result type: CC50 (µM)
Reply numerically in µM, unit not repeated.

Examples with their reported CC50 follow.
>>> value_measured("COc1cc(NC(C(=O)c2c[nH]c3cc(Cl)ccc23)c2ccc(Cl)cc2OCCO)cc(S(C)(=O)=O)c1 (single isomer, unassigned) [Compound 2A]")
3.4
>>> value_measured("COc1cc(NC(C(=O)c2c[nH]c3c(C)c(F)ccc23)c2ccc(Cl)cc2OCCO)cc(S(C)(=O)=O)c1 (single isomer, unassigned)")
5.7
>>> value_measured("COc1cc(NC(C(=O)c2c[nH]c3cc(OC)ccc23)c2ccc(Cl)cc2OCCO)cc(S(C)(=O)=O)c1 (single isomer, unassigned) [Compound 3B]")
13
>>> value_measured("COc1cc(NC(C(=O)c2c[nH]c3cc(OC)c(C)cc23)c2ccc(Cl)cc2OCCO)cc(S(C)(=O)=O)c1 (single isomer, unassigned)")
5.9
>>> value_measured("COc1cc(NC(C(=O)c2c[nH]c3cc(F)c(F)cc23)c2ccc(Cl)cc2OCCO)cc(S(C)(=O)=O)c1 (single isomer, unassigned) [Compound 7A]")
2.7

// next item, CC50 requested
Can you share its CC50? I mean this compound: COc1cc(NC(C(=O)c2c[nH]c3cc(F)ccc23)c2ccc(Cl)cc2OCCO)cc(S(C)(=O)=O)c1 (single isomer, unassigned) [Compound 1A] 3.7
